# assayed system: T1, recombinant human Tau monomer, 2N4R isoform (amino acids 2-441) (human, UniProt P10636-8 2-441)
# T1 construct: range 2-441; N-terminal His-tag removed with TEV protease; also called monomeric Tau
# T1 sequence (P10636 other isoform, or with tags, fused parts or gaps limits assumed): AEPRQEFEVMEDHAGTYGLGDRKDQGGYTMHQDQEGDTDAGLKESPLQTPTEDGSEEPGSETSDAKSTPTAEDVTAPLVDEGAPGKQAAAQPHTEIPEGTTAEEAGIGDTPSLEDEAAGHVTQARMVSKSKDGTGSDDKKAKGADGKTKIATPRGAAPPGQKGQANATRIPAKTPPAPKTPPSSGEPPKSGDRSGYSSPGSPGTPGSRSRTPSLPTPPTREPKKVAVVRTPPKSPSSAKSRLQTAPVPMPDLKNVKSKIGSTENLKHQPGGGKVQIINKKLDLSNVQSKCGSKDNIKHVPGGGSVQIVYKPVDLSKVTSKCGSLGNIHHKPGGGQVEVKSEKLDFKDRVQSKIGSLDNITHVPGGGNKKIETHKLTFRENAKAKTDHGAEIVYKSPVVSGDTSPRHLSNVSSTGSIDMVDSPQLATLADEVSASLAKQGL
# measurement protocol: SPR screen, hIgG captured, Tau monomer analyte
pKd: −log10 of the molar value.
Recorded pKd for the following binders
observable: pKd

binder="hu94B2 HC7 + LC9 (antibody, V domains shown) VH: EVQLVQSGAEVKKPGASVKVSCKASGYSLTGYTMNWVRQAPGQGLEWIGLISPYNGVTSYNQKFKGRVTITRDKSTSTAYLELSSLRSEDTAVYYCARQGAYWGQGTLVTVSS VL: DVVMTQTPLSLPVTPGQPASISCKSSQSLLDSDGKTYLNWLLQKPGQSPQRLIYLVSKLDSGVPDRFSGSGSGTDFTLKISRVEAEDVGVYYCWQGTHFPWTFGQGTKVEIK" observed_value=7.28
binder="hu94B2 HC6 + LC11 (antibody, V domains shown) VH: EVQLVQSGAEVKKPGASVKVSCKASGYSLTGYTMNWVRQAPGQGLEWIGLISPYNGVTSYNQKFKGRVTITVDKSTSTAYLELSSLRSEDTAVYYCARQGAYWGQGTLVTVSS VL: DVVMTQTPLSLPVTPGQPASISCKSSQSLLDSDGKTYLNWYLQKPGQSPQRLIYLVSKLDSGVPDRFSGSGSGTDFTLKISRVEAEDVGVYYCWQGTHFPWTFGQGTKVEIK" observed_value=7.15
binder="hu94B2 HC2 + LC11 (antibody, V domains shown) VH: EVQLVQSGAEVKKPGASVKVSCKASGYSLTGYTMNWVRQAPGQGLEWIGLISPYNGVTSYNQKFKGRVTLTVDKSTSTAYLELSSLRSEDTAVYYCARQGAYWGQGTLVTVSS VL: DVVMTQTPLSLPVTPGQPASISCKSSQSLLDSDGKTYLNWYLQKPGQSPQRLIYLVSKLDSGVPDRFSGSGSGTDFTLKISRVEAEDVGVYYCWQGTHFPWTFGQGTKVEIK" observed_value=7.05
binder="hu94B2 HC2 + LC9 (antibody, V domains shown) VH: EVQLVQSGAEVKKPGASVKVSCKASGYSLTGYTMNWVRQAPGQGLEWIGLISPYNGVTSYNQKFKGRVTLTVDKSTSTAYLELSSLRSEDTAVYYCARQGAYWGQGTLVTVSS VL: DVVMTQTPLSLPVTPGQPASISCKSSQSLLDSDGKTYLNWLLQKPGQSPQRLIYLVSKLDSGVPDRFSGSGSGTDFTLKISRVEAEDVGVYYCWQGTHFPWTFGQGTKVEIK" observed_value=8.24
binder="hu94B2 HC5 + LC11 (antibody, V domains shown) VH: EVQLVQSGAEVKKPGASVKVSCKASGYSLTGYTMNWVRQAPGQGLEWIGLISPYNGVTSYNQKFKGRATLTVDTSTSTAYLELSSLRSEDTAVYYCARQGAYWGQGTLVTVSS VL: DVVMTQTPLSLPVTPGQPASISCKSSQSLLDSDGKTYLNWYLQKPGQSPQRLIYLVSKLDSGVPDRFSGSGSGTDFTLKISRVEAEDVGVYYCWQGTHFPWTFGQGTKVEIK" observed_value=7.20
